test_target: biotinylated (prokaryotic) IL-6 (Homo sapiens, UniProt P05231)
Sequence (P05231 30-212): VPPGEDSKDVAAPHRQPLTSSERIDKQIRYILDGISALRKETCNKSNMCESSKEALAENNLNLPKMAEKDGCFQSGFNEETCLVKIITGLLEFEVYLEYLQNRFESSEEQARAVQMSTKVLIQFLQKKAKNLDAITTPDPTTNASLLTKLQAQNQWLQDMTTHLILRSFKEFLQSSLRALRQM
protocol: Surface plasmon resonance (Biacore), biotinylated IL-6 captured on streptavidin sensor chip
Type: binding
conditions_used: purified Fab
quantity_kind: kd (s⁻¹)
Entry rule: numbers only, all in s⁻¹.

Task: Bench note: what kd did 18C11: antagonistic IL-6-specific Fab clone from immunized llama (antibody, listed as Lama glama, V domains shown) VH: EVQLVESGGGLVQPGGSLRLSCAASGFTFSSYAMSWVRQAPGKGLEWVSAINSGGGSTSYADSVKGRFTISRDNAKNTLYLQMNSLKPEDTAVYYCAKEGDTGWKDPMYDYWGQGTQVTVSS VL: QSVVTQPSALSVTLGQTAKITCQGGGLRSSYAHWYQQKPGQAPVLVIYDDDSRPSGIPERFSGSSSGGRATLTISGAQAEDEGDYYCQSADSSGNAAVFGGGTHLTVLG show?
Result: 0.000784

Task: What would you report for 24D10: antagonistic IL-6-specific Fab clone, parental of 61H7 (antibody, listed as Lama glama, V domains shown) VH: QLQVVESGGGLVQPGGSLRLSCAASGFTFSSYAMSWVRQAPGKGPEWVSRISSGGGSTSYADSVKGRFTISRDNAKNTLYLQMNSLKPEDTAVYYCANRAGWGMGDYWGQGTQVTVSS VL: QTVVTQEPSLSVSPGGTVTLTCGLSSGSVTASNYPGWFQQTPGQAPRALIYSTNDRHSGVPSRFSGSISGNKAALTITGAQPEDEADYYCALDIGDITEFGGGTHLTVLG ?
Result: 1.69e-05

Task: What would you report for 28C6: antagonistic IL-6-specific Fab clone from immunized llama (antibody, listed as Lama glama, V domains shown) VH: QVQLVESGGGLVQPGGSLRLSCAASGFTFSNYYMTWVRQAPGKGLEWVSSIYSFSGDTAYADSVKGRFTISRDNAKNTLYLQMNKLKSEDTAVYYCTRDLGGVVVTANGYDYWGQGTQVTVSS VL: DIVMTQTPSSLSASLGDRVTITCQASQSISTELSWYQQKPGQTPKLLIYGASRLQTGVPARFSGSGSGTSFTLTISGLEAEDLATYYCLQDYSWPYSFGSGTRL ?
Result: 0.0025

Task: What would you report for 24C9: antagonistic IL-6-specific Fab clone from immunized llama (antibody, listed as Lama glama, V domains shown) VH: QVQLVESGGGLVQPGGSLRLSCAASGFTFSSYRMYWVRQPPGKGLEWVSAISAGGGSTYYGDSVKGRFTISRDNAKNTVYLQMNSLKPEDTALYYCKKSTWADGESDYWGQGTQVTVSS VL: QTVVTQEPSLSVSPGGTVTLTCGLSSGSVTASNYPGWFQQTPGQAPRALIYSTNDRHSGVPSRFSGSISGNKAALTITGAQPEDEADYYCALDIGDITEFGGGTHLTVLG ?
Result: 8.77e-05
